# Test system: Fibroblast
# Protocol Summary: Multiplex assay against human fibroblast
# Assay type: toxicity, cell-based
# Setup Conditions: 48 h, 1 µM, compound concentration 1 uM, replicate 2
Measured Population Pyknosed Nuclei (%), listed per entry for reference.
Lab book: enter the figure in %, no units written.

Compound: CC(C)(C)NC[C@H](O)COc1nsnc1N1CCOCC1
Value Units: %
Meas Value: 3
--
Compound: CCCSc1nc(N[C@@H]2C[C@H]2c2ccc(F)c(F)c2)c2nnn([C@@H]3C[C@H](OCCO)[C@@H](O)[C@H]3O)c2n1
Value Units: %
Meas Value: 3

// switching to the query compound
**Query** Which Population Pyknosed Nuclei (%) reading was recorded for the compound COc1cc2ncn(-c3cc(OCc4ccccc4C(F)(F)F)c(C(N)=O)s3)c2cc1OC [GW843682X] ?
**Result** 3

----------
# Tested on: HEK-293T
# Protocol Summary: Multiplex assay against HEK293T
# Format: toxicity, cell-based
# Setup Conditions: human, 24 h, 10 µM, compound concentration 10 uM, replicate 2
Values of Population Pyknosed Nuclei (%) greater than or equal to 40% map to class 1; values below map to class 0.

Worked cases, answers included:
Compound: COC(=O)C1=C(C)NC(C)=C(C(=O)OCCCN2CCC(c3ccccc3)(c3ccccc3)CC2)[C@H]1c1cccc([N+](=O)[O-])c1
Target Or Test System: HEK-293T
Class Assignment: class 1

Compound: CNC(=O)Nc1ccc2c(c1)[C@@]1(CC2)OC(=O)N(CC(=O)N(Cc2ccc(F)cc2)[C@@H](C)C(F)(F)F)C1=O
Target Or Test System: HEK-293T
Class Assignment: class 0

Compound: C[C@]12CC[C@@H]3c4ccc(O)cc4CC[C@H]3[C@@H]1CC[C@@H]2O
Target Or Test System: HEK-293T
Class Assignment: class 1

Compound: COc1cc(Nc2nccc(-c3cnn4nc(OC)ccc34)n2)cc(C(F)(F)F)c1
Target Or Test System: HEK-293T
Class Assignment: class 0

Compound: O=C(c1cc2c(cc1F)OC(c1ccc(F)cc1)(c1ccc(Cl)cc1Cl)O2)N1CCOCC1 (stereo unspecified)
Target Or Test System: HEK-293T
Class Assignment: class 1

Compound: Cl.O=C(O)c1cc(-c2ccc(C3CCNCC3)cc2)c2ccc(-c3ccc(C(F)(F)F)cc3)cc2c1
Target Or Test System: HEK-293T
Class Assignment: class 1

Compound: CC1=C(C(=O)Nc2cc3cn[nH]c3cc2F)C(c2ccc(C(F)(F)F)cc2)CC(=O)N1 (stereo unspecified)
Target Or Test System: HEK-293T
Class Assignment: class 0

Compound: C=CC(=O)Nc1ccc2[nH]c(=O)n(C3CCN(Cc4ccc(-c5nc6cc[nH]c(=O)c6cc5-c5ccccc5)cc4)CC3)c2c1
Target Or Test System: HEK-293T
Class Assignment: class 0

Compound: O=c1[nH]c2ccccc2n1C1CCN(Cc2ccc(-c3[nH]c4cc5ncnc5cc4nc3-c3ccccc3)cc2)CC1
Target Or Test System: HEK-293T
Class Assignment: class 0

Compound: Cc1cccc(CN2CCN(C(c3ccccc3)c3ccc(Cl)cc3)CC2)c1.Cl.Cl (stereo unspecified)
Target Or Test System: HEK-293T
Class Assignment: class 0

**Query** Dear colleague, could you confirm whether CC(C)Oc1ccccc1C(=O)Nc1ccccc1C(=O)Nc1cccc(S(=O)(=O)C(F)(F)F)c1 has Population Pyknosed Nuclei (%) at or above 40%?
**Result** class 1

**Query** Decide: is the reported value of Population Pyknosed Nuclei (%) for COc1ccccc1CN[C@H]1C2CCN(CC2)[C@H]1C(c1ccccc1)c1ccccc1 equal to or greater than 40%?
**Result** class 1

**Query** Tell me whether Population Pyknosed Nuclei (%) is at least 40% here: CC(C)c1noc(N2CCC(COc3ccc(-c4ccc(S(C)(=O)=O)cc4)nc3)CC2)n1
**Result** class 1

**Query** Test whether the compound Cc1ccc(C)c(Oc2ccncc2C(=O)N2CCN(C3CC3)c3ccccc32)c1 records Population Pyknosed Nuclei (%) of 40% or higher.
**Result** class 1

**Query** Reported Population Pyknosed Nuclei (%) reaches at least 40% for CCc1ccc(OCc2ccccc2C(=O)Nc2ccc3nc(C)cc(N)c3c2)cc1.Cl ?
**Result** class 1

**Query** Say whether Cc1ccccc1C(c1ccccc1C)N1C2CCC1CC(O)(c1ccccc1)C2 (stereo unspecified) shows Population Pyknosed Nuclei (%) of 40% or more.
**Result** class 1

----------
Parameter: Population Mitotic Cells (%). Scope: all listed entries.
# Tested on: Fibroblast
# Protocol Summary: Multiplex assay against human fibroblast
# Assay type: toxicity, cell-based
# Setup Conditions: 24 h, 1 µM, compound concentration 1 uM, replicate 2
State the value with its unit after it.

Molecule: C[C@]1(O)C[C@@H](c2nc(-c3ccc4ccc(-c5ccccc5)nc4c3)c3c(N)nccn32)C1
Meas Value: 50%

Molecule: COc1cc2ncn(-c3cc(OCc4ccccc4C(F)(F)F)c(C(N)=O)s3)c2cc1OC [GW843682X]
Meas Value: 44%

Now take the following molecule into account.
**Query** Can you look up Population Mitotic Cells (%) on Fibroblast for CNC(=O)Nc1ccc(-c2nc(N3CC4CCC(C3)O4)c3cnn(C4CCC5(CC4)OCCO5)c3n2)cc1 ?
**Result** 75%

----------
# Tested on: Fibroblast
# Protocol Summary: Multiplex assay against human fibroblast
# Assay type: toxicity, cell-based
# Setup Conditions: 24 h, 10 µM, compound concentration 10 uM, replicate 2
Assay Endpoint: Population Pyknosed Nuclei (%)
Just the number in %, nothing appended.

Smiles Entry: CN1CCN(Cc2ccc(Nc3ncc(Cl)c(Nc4ccccc4S(=O)(=O)N(C)C)n3)cc2)CC1
Population Pyknosed Nuclei (%): 36

**Query** Look up Population Pyknosed Nuclei (%): CC(C)OC(=O)N1CCC(Oc2ncnc3c2cnn3-c2ccc(S(C)(=O)=O)cc2F)CC1
**Result** 6

**Query** Suppose we examine the compound COc1ccccc1CN[C@H]1C2CCN(CC2)[C@H]1C(c1ccccc1)c1ccccc1 ; what Population Pyknosed Nuclei (%) value has been reported?
**Result** 16

----------
# Population Tubulin-Different-Phenotype (%) values compiled below
# Tested on: Fibroblast
# Protocol Summary: Multiplex assay against human fibroblast
# Assay type: toxicity, cell-based
# Setup Conditions: 48 h, 10 µM, compound concentration 10 uM, replicate 1
Reply with just the number (in %).

The examples below pair each entry with its known result.
Molecule: O=c1cc(N2CCOCC2)oc2c(-c3cccc4c3sc3ccccc34)cccc12
Meas Value: 80

Molecule: Cc1cccc(CN2CCN(C(c3ccccc3)c3ccc(Cl)cc3)CC2)c1.Cl.Cl (stereo not drawn)
Meas Value: 79

With those in mind, consider the next molecule.
**Query** Hi! What's the reported Population Tubulin-Different-Phenotype (%) for CNC(=O)Nc1ccc(-c2nc(N3CC4CCC(C3)O4)c3cnn(C4CCC5(CC4)OCCO5)c3n2)cc1 on Fibroblast?
**Result** 80

----------
# Tested on: Fibroblast
# Protocol Summary: Multiplex assay against human fibroblast
# Type: toxicity, cell-based
# Setup Conditions: 12 h, 10 µM, compound concentration 10 uM, replicate 1
# Lookup of reported Population Apoptotic (%) keyed by entry
Express the result in % but write the number alone.

These solved cases illustrate the format of a correct answer.
Molecule: Cc1ccccc1C(c1ccccc1C)N1C2CCC1CC(O)(c1ccccc1)C2 (stereo not drawn)
Value Units: %
Population Apoptotic (%): 63

Molecule: C=CC(=O)Nc1ccc2[nH]c(=O)n(C3CCN(Cc4ccc(-c5nc6cc[nH]c(=O)c6cc5-c5ccccc5)cc4)CC3)c2c1 [Borussertib]
Value Units: %
Population Apoptotic (%): 60

--- query ---
**Query** Suppose we examine the molecule CC(C)c1noc(N2CCC(COc3ccc(-c4ccc(S(C)(=O)=O)cc4)nc3)CC2)n1 [GSK-1292263] ; what Population Apoptotic (%) value has been reported?
**Result** 52

----------
# Test system: Fibroblast
# Protocol Summary: Multiplex assay against human fibroblast
# Type: toxicity, cell-based
# Setup Conditions: 48 h, 10 µM, compound concentration 10 uM, replicate 1
Measured Population Normal (%), listed per entry.
Numeric only. Scale: %

Worked examples, 3 molecules total:
Molecule: C#Cc1cccc(Nc2ncnc3cc(OCCOC)c(OCCOC)cc23)c1 [ERLOTINIB]
Meas Value: 83
//
Molecule: CC(C)c1noc(N2CCC(COc3ccc(-c4ccc(S(C)(=O)=O)cc4)nc3)CC2)n1 [GSK-1292263]
Meas Value: 85
//
Molecule: COC(=O)C1=C(C)NC(C)=C(C(=O)OCCCN2CCC(c3ccccc3)(c3ccccc3)CC2)[C@H]1c1cccc([N+](=O)[O-])c1 [NIGULDIPINE]
Meas Value: 71

**Query** Query: Population Normal (%); subject: CC1=C(C(=O)Nc2cc3cn[nH]c3cc2F)C(c2ccc(C(F)(F)F)cc2)CC(=O)N1 (configuration not stated)
**Result** 88

**Query** Consider the molecule CC(C)Oc1ccccc1C(=O)Nc1ccccc1C(=O)Nc1cccc(S(=O)(=O)C(F)(F)F)c1 and give its measured Population Normal (%).
**Result** 89

**Query** Give the measured Population Normal (%) of COc1cc2ncn(-c3cc(OCc4ccccc4C(F)(F)F)c(C(N)=O)s3)c2cc1OC [GW843682X] .
**Result** 80

**Query** Value lookup for Population Normal (%); key = Cc1ccc(C)c(Oc2ccncc2C(=O)N2CCN(C3CC3)c3ccccc32)c1
**Result** 91

These entries and their values trace back to ChEMBL document CHEMBL4689842.
